target: T1, extracellular region of human PD-L1 protein (positions 19-238 of SEQ ID NO: 3) (human, UniProt Q9NZQ7 19-238); experiment: ForteBio Octet (BLI), antibody immobilized, PD-L1 ECD 6.25-200 nM; antibody after purification
T1 construct: also called Human PD-L1-his; antigen PD-L1
T1 sequence (Q9NZQ7 19-238): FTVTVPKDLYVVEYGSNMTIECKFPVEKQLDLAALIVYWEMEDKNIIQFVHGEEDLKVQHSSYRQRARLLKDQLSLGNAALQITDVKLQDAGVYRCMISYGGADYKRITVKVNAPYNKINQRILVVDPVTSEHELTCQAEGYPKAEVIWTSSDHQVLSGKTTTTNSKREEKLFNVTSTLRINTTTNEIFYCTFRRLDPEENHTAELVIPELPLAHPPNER
READOUT LABEL: koff (s⁻¹)
Write it as a number; the unit s⁻¹ goes unstated.

Worked examples, 2 binders total:
murine antibody 28B1 (A5), subclone 28B1-2 (antibody, V domains shown, Mouse hybridoma antibody; Only variable domains printed) VH: QVQLKQSGAELVKPGASVMLSCTASAFNIDDTYIHWVKQRPEQGLEWIGRIDPANGNTDYDPECQGKATITTDMSSNTAYLQLSSLTSEDTAVYFCARGLRLPGLVYWGRGTLVTVSA VL: DIQMTQTTSSLSASLGDRVTISCRASQDISNYLNWYQQKPDGTVKLLIYYTSILYSGVPSRFSGSGSGTDYSLTINTLEEEDIATYFCQQGNTLPWTFGGGTKLEIIR | 0.000785
murine antibody 7E5 (A9) (antibody, V domains shown, Mouse hybridoma antibody (subclone 7E5-2); Only variable domains printed; also called 7E5-2) VH: QVQLKQSGPGLVAPSQSLSITCTVSGFSLTGYGVNWVRQPPGKGLEWLGKIWGDGSTDYTSALKSRLSISKDNSKSQVFLKVNSLQTDDTARYYCARDVMDYWGQGTSVTVSS VL: QIVLTQSPAIMSASPGEKVTMTCSASSSISYMHWFQQKPGTSPKRWIYDTSKLASGVPARFSGSESGTSYSLTISSMEAEDAATYYCHQRSPYPTFGAGTKLELK | 0.11

// moving on: another record for koff
Given item murine antibody 2E5 (A10) (antibody, V domains shown, Mouse hybridoma antibody (subclone 2E5-9); Only variable domains printed; also called 2E5-9) VH: QVQLKQSGPGLVAPSQSLSITCTVSGFSLTGYGVNWVRQPPGKGLEWLGKIWGDGITDYNSALKSRLSISKDNSKSQVFLKMNSLQTEDTARYYCARDVMDYWGQGTSVTVSS VL: DVLMTQIPLSLPVSLGDQASISCRSSQSIEQSNGNTYLEWYLQKPGQSPKVLIYKVSNRFSGVPDRFSGSGSGTDFTLKISRVESEDLGVYYCFQGSHVPYTFGGGTKLEIK , the value recorded as its koff is 0.00376
